# assaySummary: chemical genetic growth profiling, strain panel (AID 1159580);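 also: tested at 20 µM; growth read once vehicle control cultures reached saturation at 30 °C; 1 = growth at the plate median or of vehicle wells; lower values mean less growth of the strain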
# protocolConditions: S. cerevisiae deletion strains, growth OD, locus YJL115W, strain asf1, stronger effect = lower value
Out of some 5,500 compounds screened, about 2,000 (36%) were called active. Roughly 18% stayed inconclusive and do not appear here. This is one part of the list.
Reported normalized growth by item:
// response body must contain only the number

Past entries and their recorded results:
CC(C)=CCCC(C)[C@@H]1CC[C@]2(C)C3=C(CC[C@@]12C)C1(C)CC[C@H](O)C(C)(C)C1CC3 (stereo partly drawn); 1.06
C=C1C[C@]23C[C@@]1(O)CC[C@H]2[C@@]12C=C[C@H](O)[C@@](C)(C(=O)O1)[C@H]2[C@@H]3C(=O)O; 1.02
COc1ccccc1OCC(O)CO (stereo not drawn); 1.02
COC(=O)c1c(OC)cc2c(c1C)Oc1c(Cl)c(O)c(Cl)c(C)c1C(=O)O2; 1
CC(=O)O[C@H]1CCC2(C)C3=C(CCC2C1(C)C)[C@]1(C)CCC(C(C)CCC=C(C)C)[C@@]1(C)CC3 (stereo partly drawn); 0.987

*Q* Fill in normalized growth for record COC1CC2CCC(C)C(O)(O2)C(=O)C(=O)N2CCCCC2C(=O)OC(C(C)CC2CCC(O)C(OC)C2)CC(=O)C(C)/C=C(\C)C(O)C(OC)C(=O)C(C)CC(C)/C=C/C=C/C=C/1C (stereo not drawn)
*A* 0.0785

*Q* For the compound OC[C@H]1O[C@@](CO)(O[C@@H]2O[C@H](CO)[C@@H](O)[C@H](O)[C@H]2O)[C@@H](O[C@@H]2O[C@H](CO)[C@@H](O)[C@H](O)[C@H]2O)[C@@H]1O , give its measured normalized growth value.
*A* 1.02

# credit: PubChem BioAssay AID1159580
